study.target: NADPH oxidase 2 (Homo sapiens)
assay: NOX2-dependent H2O2 signal modulators, primary screen, NOX inhibitor project, cell-based, HEK293-NOX2, PMA-stimulated, Amplex Red fluorescence (AID 1159); further: test concentration not given here
condition: 45 min, higher = more signal, called active from +8 up or from −8 down
result.type: z-score
Note: the reply should be a number with no unit written.

Below, 5 compounds whose answers are already recorded.
Documented z-score of COc1ccc(C(O)C2C=CC3C(=O)N(C)C(=O)C3N2N2CCCCC2)c2ccccc12 (stereo not drawn) : 0.273

Documented z-score of CN(C)CCCNC(=O)[C@@]1(c2ccc([N+](=O)[O-])cc2)CC(=O)N(C2CCCCC2)[C@@H]1c1ccc(CO)cc1I : -8.16

Documented z-score of COc1cc2c(cc1O)C=[N+](Cc1cccc(OC(F)(F)F)c1)CC2 : -4.18

Documented z-score of C=CC[C@]12N=C(c3ccc(OCCCO)cc3)O[C@H]1c1ccccc1N(Cc1ccccc1)C2=O : -0.89

Documented z-score of CCCCCCC#C[Si](O[C@H](c1ccccc1)c1cn([C@H](CO)Cc2ccccc2)nn1)(C(C)C)C(C)C : -1.25

Continuing:
Documented z-score of [N-]=[N+]=NCc1ccccc1C[C@@]1(C(=O)NCC(O)CO)N=C(c2ccc(OCCCO)cc2)O[C@@H]1c1ccccc1N=[N+]=[N-] (stereo partly drawn) : -0.00841

Documented z-score of C=CCN(Cc1ccccc1)C(=O)C(c1cccs1)N(CCOCCO)C(=O)/C=C\C(=O)O (stereo not drawn) : -0.00856

Documented z-score of COCCOC(=O)N1C(=O)[C@@]2(c3cc(C#CCCO)ccc31)[C@H](C(=O)N1CCN(c3ncccn3)CC1)[C@H]1C(=O)O[C@H](c3ccccc3)[C@H](c3ccccc3)N1[C@@H]2c1ccccc1OCCO : 1.45
